target: Tubulin (Sus scrofa) (UniProt P02554+P02550); assay: Inhibition of porcine brain tubulin polymerization at 5 uM by fluorescence based assay
Sequence (P02550 whole entry, looked up): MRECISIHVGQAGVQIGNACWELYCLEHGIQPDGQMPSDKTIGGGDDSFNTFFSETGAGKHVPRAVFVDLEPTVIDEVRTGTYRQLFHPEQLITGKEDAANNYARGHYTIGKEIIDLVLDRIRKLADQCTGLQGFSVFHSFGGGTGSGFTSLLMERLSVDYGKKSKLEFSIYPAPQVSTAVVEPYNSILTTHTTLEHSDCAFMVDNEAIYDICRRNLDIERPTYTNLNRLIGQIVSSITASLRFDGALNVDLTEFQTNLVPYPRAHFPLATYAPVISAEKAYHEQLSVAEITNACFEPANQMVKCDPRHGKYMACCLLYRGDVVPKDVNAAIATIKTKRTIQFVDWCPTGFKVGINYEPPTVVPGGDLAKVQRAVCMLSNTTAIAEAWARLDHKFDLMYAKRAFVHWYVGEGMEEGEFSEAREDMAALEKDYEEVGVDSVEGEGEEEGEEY
Sequence (P02554 whole entry, looked up): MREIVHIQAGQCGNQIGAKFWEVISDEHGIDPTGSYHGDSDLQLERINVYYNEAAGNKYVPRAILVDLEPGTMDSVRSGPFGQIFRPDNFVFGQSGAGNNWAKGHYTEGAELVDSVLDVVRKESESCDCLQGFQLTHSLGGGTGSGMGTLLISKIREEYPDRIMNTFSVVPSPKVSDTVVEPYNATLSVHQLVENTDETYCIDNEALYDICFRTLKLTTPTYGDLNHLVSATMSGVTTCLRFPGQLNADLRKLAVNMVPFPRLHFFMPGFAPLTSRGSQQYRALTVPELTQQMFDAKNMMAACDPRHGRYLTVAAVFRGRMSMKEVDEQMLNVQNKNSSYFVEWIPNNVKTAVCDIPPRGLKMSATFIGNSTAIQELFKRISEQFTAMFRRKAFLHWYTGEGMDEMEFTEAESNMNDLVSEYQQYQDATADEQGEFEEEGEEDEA
# inhibition listing for each entry below
value.type: inhibition (%)

INSERT INTO measurements (smiles_repr, readout_value) VALUES
  ('COc1cc(-c2nc3sc(C4CC4)nn3c2-c2ccc(N(C)C)cc2)cc(OC)c1OC', 60.9),
  ('COC(=O)Nc1nc2cc(C(=O)c3cccs3)ccc2[nH]1', 79.2),
  ('CCc1nn2c(-c3ccc4ccccc4c3)c(-c3cc(OC)c(OC)c(OC)c3)nc2s1', 75.1),
  ('CCc1nn2c(-c3ccc(N(C)C)cc3)c(-c3cc(OC)c(OC)c(OC)c3)nc2s1', 66.8);
